PBM binding z-score values, listed per item
- Tested on: RARb:RXRa (NR concentration 270 nM, RXRa partner concentration 90 nM)
- ASSAY: PBM binding z-score (relative to random genomic background probes); higher = stronger binding; sequences stand for … in GC…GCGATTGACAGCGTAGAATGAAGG
PARAMETER MEASURED: PBM binding z-score

>>> value_observed("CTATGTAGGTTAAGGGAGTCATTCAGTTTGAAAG")
0.814
>>> value_observed("AACGAAAGGTCGAAGGTGAGTATACCCACCCGAA")
3.79
>>> value_observed("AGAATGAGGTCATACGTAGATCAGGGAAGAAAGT")
4.84
>>> value_observed("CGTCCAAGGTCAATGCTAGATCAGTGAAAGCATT")
4.94
>>> value_observed("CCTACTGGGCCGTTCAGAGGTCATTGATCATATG")
2.7
>>> value_observed("CCTACTGGGCCACTAAAGGTCATTGATTCAGTGA")
3.89
>>> value_observed("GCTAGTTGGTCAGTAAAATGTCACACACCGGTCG")
0.995
>>> value_observed("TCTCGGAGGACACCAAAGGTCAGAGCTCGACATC")
4.21
>>> value_observed("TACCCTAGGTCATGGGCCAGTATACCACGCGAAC")
4.11
>>> value_observed("TGTATGAGGTTAAAGATCAGGGAACGTGGCGTCG")
2.49
>>> value_observed("CAAAATAGGTCACGAAAGGTCAAAGTCGAATGAC")
6.03
>>> value_observed("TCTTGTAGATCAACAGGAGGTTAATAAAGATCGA")
0.533

---

PBM binding z-score values, listed per item
- System: RARg homodimer (NR concentration 270 nM)
- ASSAY: PBM binding z-score (relative to random genomic background probes); higher = stronger binding; sequences stand for … in GC…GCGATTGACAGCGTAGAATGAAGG
PARAMETER MEASURED: PBM binding z-score

>>> value_observed("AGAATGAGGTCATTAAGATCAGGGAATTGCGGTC")
5.03
>>> value_observed("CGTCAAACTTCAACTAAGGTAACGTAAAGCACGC")
0.43
>>> value_observed("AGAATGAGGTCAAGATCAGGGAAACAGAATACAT")
6.24
>>> value_observed("GCTGCGAGGTCAACTGATGGTCAGCTAAAGCTCG")
7.44
>>> value_observed("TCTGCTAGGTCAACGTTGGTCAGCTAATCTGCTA")
4.83
>>> value_observed("CCTGCTAGGTCAAAGGTCAGCTAAAGCAGCTCGC")
7.57
>>> value_observed("TCTATTAGTTGATTAGGGCAACCGAAACAGCGGA")
0.733
>>> value_observed("ATCGAAAGGTCTAAGGTGAGTATACCCACCCGAA")
1.29
>>> value_observed("TAGCCTAGTTCATGCGGGCCAGTATAGTGTCGGC")
0.586
>>> value_observed("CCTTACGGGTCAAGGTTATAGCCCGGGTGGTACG")
5.24
>>> value_observed("TCTCGGAGGTCACGAAAGGTCAGAGCTCGACATC")
9.26
>>> value_observed("CAAACGAGGTCACGAAAGGTCAAAGTCGAATGAC")
9.89
>>> value_observed("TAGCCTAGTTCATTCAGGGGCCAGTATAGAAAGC")
1.34
>>> value_observed("CGTCCAAGGTCATAGAGGTCAGTGAATGCCGAGT")
7.75
>>> value_observed("CCTTAGGGGTCACGAGGTTATAGCACGACGAGCG")
8.18
>>> value_observed("AATACAAGGTCATCGTAGGCCAGAGTACGCACAG")
6.23
>>> value_observed("TTACCAAGGTCAAGGTCGTTGATCCCTCTGTAGA")
6.91
>>> value_observed("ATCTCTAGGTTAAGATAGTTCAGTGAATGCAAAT")
1.87
>>> value_observed("CGAACTAGGTCACCCAGGACAGTGAATACATTGA")
5.04
>>> value_observed("GTTACAGGGTCAAGGCCAGAGTACGCGTATTGAT")
5.24
>>> value_observed("TCTGCTAGGTCATCGATGGTCAGCTAATCTGCTA")
4.88
>>> value_observed("ATATGTAGGTTAGCTGGGGTCATTCACACTAGGC")
3.12
>>> value_observed("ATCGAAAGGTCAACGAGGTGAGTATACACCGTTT")
8.92
>>> value_observed("CCTTAGGGGTCACTCCAGGTTATAGCATCGGAGT")
7.07
>>> value_observed("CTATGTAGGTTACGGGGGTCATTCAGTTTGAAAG")
4.59
>>> value_observed("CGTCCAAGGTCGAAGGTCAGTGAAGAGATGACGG")
4.64
